- ASSAY TARGET: Replicase polyprotein 1a (Severe acute respiratory syndrome-related coronavirus, UniProt P0C6U8)
- PROCEDURE TEXT: Inhibition of SARS-CoV 3CL protease
Here, each record is paired with measured IC50 data.

Answered examples (2):
C[C@H](NC(=O)[C@@H](N)CCC(=O)O)C(=O)NCC(=O)C(F)(F)F; 50 µM
CC(C)C[C@H](NC(=O)OC(C)(C)C)C(=O)NC(C)C(=O)C(F)(F)F (mixture of isomers); 40 µM

Which IC50 value is on record for CC(C)C[C@H](NC(=O)[C@@H](NC(=O)[C@H](C)NC(=O)OCc1ccccc1)C(C)C)C(=O)N[C@@H](Cc1ccccc1)C(=O)C(F)(F)F (mixture of isomers) ?
10 µM

Which IC50 value is on record for O=C(N[C@@H](Cc1ccccc1)C(=O)NC(Cc1ccccc1)C(=O)C(F)(F)F)OCc1ccccc1 (mixture of isomers) ?
20 µM

Which IC50 value is on record for CCCCCCCCC(=O)N[C@@H](CC(C)C)C(=O)NC(Cc1ccccc1)C(=O)C(F)(F)F (stereo partly drawn) ?
> 50 µM

Which IC50 value is on record for "C[C@H](NC(=O)[C@H](CCC(=O)OC(C)(C)C)NC(=O)OC(C)(C)C)C(=O)NCC(=O)C(F)(F)F" ?
40 µM

Which IC50 value is on record for CCCCCCCCCC(=O)N[C@@H](CC(C)C)C(=O)NC(Cc1ccccc1)C(=O)C(F)(F)F (mixture of isomers) ?
50 µM

Which IC50 value is on record for CC(C)C[C@H](NC(=O)OCc1ccccc1)C(=O)NC(Cc1ccccc1)C(=O)C(F)(F)F (mixture of isomers) ?
15 µM
